- subject-of-test: CSNK1G1 (human) (UniProt Q9HCP0)
- Sequence (Q9HCP0 whole entry, looked up): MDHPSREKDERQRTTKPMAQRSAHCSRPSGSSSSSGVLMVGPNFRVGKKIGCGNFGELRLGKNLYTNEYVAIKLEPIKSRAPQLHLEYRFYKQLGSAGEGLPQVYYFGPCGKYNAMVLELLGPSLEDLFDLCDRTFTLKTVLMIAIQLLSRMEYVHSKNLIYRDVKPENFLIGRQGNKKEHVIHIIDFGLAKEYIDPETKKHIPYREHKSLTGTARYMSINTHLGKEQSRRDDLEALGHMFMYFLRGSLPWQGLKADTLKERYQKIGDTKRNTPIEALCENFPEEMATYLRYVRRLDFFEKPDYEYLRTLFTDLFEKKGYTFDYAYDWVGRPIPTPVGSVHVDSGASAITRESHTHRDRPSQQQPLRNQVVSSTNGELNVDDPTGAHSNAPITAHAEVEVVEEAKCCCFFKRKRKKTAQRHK
- protocol: Caliper, Mobility shift assay off-chip
- condition: compound 0.02 µM
parameter: inhibition (%)

[
  {
    "input-smiles": "CNC(=O)c1ccccc1Sc1ccc2c(/C=C/c3ccccn3)n[nH]c2c1",
    "subject-of-test": "CSNK1G1 (human) (UniProt Q9HCP0)",
    "inhibition, %": -3.6
  }
]

[a] COc1cc2c(Oc3ccc4[nH]c(C)cc4c3F)ncnc2cc1OCCCN1CCCC1
[b] CNC(=O)c1cc(Oc2ccc(NC(=O)Nc3ccc(Cl)c(C(F)(F)F)c3)cc2)ccn1
[c] Cc1ccc(Nc2nccc(N(C)c3ccc4c(C)n(C)nc4c3)n2)cc1S(N)(=O)=O
Exercise: # rank_down: sort by inhibition, max first Dear reader, please state the labels in the requested order.
Key: c, a, b

---

- subject-of-test: AKT1 (human)
- protocol: Caliper, Mobility shift assay off-chip
- condition: compound 0.2 µM
parameter: inhibition (%)

[I] Cc1ccc(Nc2nccc(N(C)c3ccc4c(C)n(C)nc4c3)n2)cc1S(N)(=O)=O
[II] CNC(=O)c1cc(Oc2ccc(NC(=O)Nc3ccc(Cl)c(C(F)(F)F)c3)cc2)ccn1
Exercise: Which gives the smaller inhibition number: I or II ? Your answer should be the label attached to the chosen record.
Key: I
(I: -2.2%, II: -1.4%)

[A] COc1cc2c(Oc3ccc4[nH]c(C)cc4c3F)ncnc2cc1OCCCN1CCCC1
[B] CCN(CC)CCNC(=O)c1c(C)[nH]c(/C=C2\C(=O)Nc3ccc(F)cc32)c1C
Exercise: Which gives the smaller inhibition number: A or B ? Your answer should be the label attached to the chosen record.
Key: A

---

- subject-of-test: MAP3K1 (human)
- protocol: ELISA
- condition: compound 0.02 µM
parameter: inhibition (%)

[
  {
    "input-smiles": "CNC(=O)c1cc(Oc2ccc(NC(=O)Nc3ccc(Cl)c(C(F)(F)F)c3)cc2)ccn1",
    "readout-unit": "%",
    "inhibition": 0.7
  }
]

[a] Cc1ccc(Nc2nccc(N(C)c3ccc4c(C)n(C)nc4c3)n2)cc1S(N)(=O)=O
[b] COc1cc2c(Oc3ccc4[nH]c(C)cc4c3F)ncnc2cc1OCCCN1CCCC1
[c] CNC(=O)c1ccccc1Sc1ccc2c(/C=C/c3ccccn3)n[nH]c2c1
Exercise: Form: Sort by [inhibition] Order [ ascending ] Dear reader, please state the labels in the requested order.
Key: c, a, b

---

- subject-of-test: DCLK2 (human) (UniProt Q8N568)
- Sequence (Q8N568 whole entry, looked up): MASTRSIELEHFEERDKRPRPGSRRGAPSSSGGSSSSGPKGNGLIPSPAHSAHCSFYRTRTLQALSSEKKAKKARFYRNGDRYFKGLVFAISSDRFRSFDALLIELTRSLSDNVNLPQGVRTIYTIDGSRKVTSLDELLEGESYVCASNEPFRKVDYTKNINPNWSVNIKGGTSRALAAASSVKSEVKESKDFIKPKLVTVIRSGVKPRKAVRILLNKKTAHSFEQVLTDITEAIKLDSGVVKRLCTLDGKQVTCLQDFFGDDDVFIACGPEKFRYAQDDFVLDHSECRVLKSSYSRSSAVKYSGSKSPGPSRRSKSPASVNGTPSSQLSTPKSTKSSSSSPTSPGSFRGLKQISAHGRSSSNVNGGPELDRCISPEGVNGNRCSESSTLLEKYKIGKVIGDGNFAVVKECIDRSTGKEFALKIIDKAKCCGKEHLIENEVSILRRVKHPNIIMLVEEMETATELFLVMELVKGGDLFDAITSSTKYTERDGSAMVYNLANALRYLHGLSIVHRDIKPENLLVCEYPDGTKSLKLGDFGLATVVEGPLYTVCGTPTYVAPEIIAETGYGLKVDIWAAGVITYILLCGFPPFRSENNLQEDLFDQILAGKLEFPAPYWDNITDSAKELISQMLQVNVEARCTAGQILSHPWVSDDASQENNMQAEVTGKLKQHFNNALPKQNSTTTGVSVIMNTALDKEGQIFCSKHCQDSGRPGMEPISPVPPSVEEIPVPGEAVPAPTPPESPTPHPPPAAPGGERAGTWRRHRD
- protocol: Caliper, Mobility shift assay off-chip
- condition: compound 0.2 µM
parameter: inhibition (%)

[
  {
    "input-smiles": "Cc1ccc(Nc2nccc(N(C)c3ccc4c(C)n(C)nc4c3)n2)cc1S(N)(=O)=O",
    "inhibition [%]": -0.9
  }
]

[P] COc1cc2c(Oc3ccc4[nH]c(C)cc4c3F)ncnc2cc1OCCCN1CCCC1
[Q] CNC(=O)c1cc(Oc2ccc(NC(=O)Nc3ccc(Cl)c(C(F)(F)F)c3)cc2)ccn1
[R] CCN(CC)CCNC(=O)c1c(C)[nH]c(/C=C2\C(=O)Nc3ccc(F)cc32)c1C
Exercise: Form: Sort by [inhibition] Order [ ascending ] Dear reader, please state the labels in the requested order.
Key: Q, P, R
(Q: -1%, P: -0.5%, R: 5.2%)
